B1: glmS ribozyme (parent)
chain: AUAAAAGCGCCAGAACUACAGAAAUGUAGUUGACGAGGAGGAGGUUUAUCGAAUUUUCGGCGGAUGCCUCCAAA

Variants of: B1
run.description: self-cleavage kobs at 2500 uM GlcN6P; higher = faster cleavage; RNA array
condition.details: with glucosamine-6-phosphate
Fewer inactive variants are shown than the library holds.
Catalogue of self-cleavage kobs at 2500 uM GlcN6P readings, one per entry.
Note: unit s⁻¹ is implicit; provide only the numeric part.

Field: example entries. Status: answers known.
# self-cleavage kobs at 2500 uM GlcN6P of C19A A33U = 0.000114

Form: variant = G13C U56A C58G C71U ; self-cleavage kobs at 2500 uM GlcN6P = 6.28e-05

More entries:
Per the records, this variant ( A52U U57A ) has self-cleavage kobs at 2500 uM GlcN6P equal to 0.00123

Reported self-cleavage kobs at 2500 uM GlcN6P of G44U A64G : 5.94e-05

Record G37A U47G U55G , field self-cleavage kobs at 2500 uM GlcN6P: 0.000183
